- Experimental Protocol: Mouse pharmacokinetics, i.v./oral and enabling formulations
- Type: in vivo
- Test Parameters: mouse, plasma, iv, 0.5 mg/kg, IV 0.5 mg/kg; 0.17 h; read-out: Plasma conc (total)
Quantity Measured: concentration at 0.17 h
Give me the value, and tack the unit on after it.

## Task What does the record list as concentration at 0.17 h for `Cc1ncsc1-c1ccc(CNC(=O)[C@@H]2C[C@@H](O)CN2C(=O)[C@@H](NC(=O)COCCCOCCCOc2cc(F)c([C@@H]3c4[nH]c5ccccc5c4C[C@@H](C)N3CC(C)(C)F)c(F)c2)C(C)(C)C)cc1` ?
## Result 261 nM

* * *

Known DC50 of a selection of molecules
- Tested System: ESR1-Nanoluciferase fusion protein (Homo sapiens)
- Sequence (P40337 whole entry, the tested form may be a part): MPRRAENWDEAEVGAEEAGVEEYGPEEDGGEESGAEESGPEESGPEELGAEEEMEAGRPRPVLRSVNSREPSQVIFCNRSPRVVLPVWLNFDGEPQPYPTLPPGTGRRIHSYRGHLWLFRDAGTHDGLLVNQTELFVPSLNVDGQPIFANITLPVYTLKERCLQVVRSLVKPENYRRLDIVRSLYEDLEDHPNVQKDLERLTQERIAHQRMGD
- Sequence (P03372 whole entry, the tested form may be a part): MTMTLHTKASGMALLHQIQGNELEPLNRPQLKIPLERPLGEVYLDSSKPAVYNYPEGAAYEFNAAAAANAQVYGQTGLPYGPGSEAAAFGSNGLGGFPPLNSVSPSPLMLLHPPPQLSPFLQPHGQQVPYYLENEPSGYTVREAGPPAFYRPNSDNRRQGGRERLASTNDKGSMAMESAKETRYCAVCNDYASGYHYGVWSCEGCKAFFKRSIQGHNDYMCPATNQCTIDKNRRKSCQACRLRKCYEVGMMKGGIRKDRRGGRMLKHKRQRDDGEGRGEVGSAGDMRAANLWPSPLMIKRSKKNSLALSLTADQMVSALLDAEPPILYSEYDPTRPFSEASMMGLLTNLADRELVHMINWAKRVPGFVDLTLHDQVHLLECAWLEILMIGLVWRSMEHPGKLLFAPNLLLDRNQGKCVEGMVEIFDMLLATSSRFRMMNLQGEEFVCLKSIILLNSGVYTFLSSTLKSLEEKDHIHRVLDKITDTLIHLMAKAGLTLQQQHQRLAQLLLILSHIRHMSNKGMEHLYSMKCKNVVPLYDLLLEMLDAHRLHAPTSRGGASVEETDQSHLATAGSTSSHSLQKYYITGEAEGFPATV
- Experimental Protocol: ERα nanoluciferase degradation assay
- Format: cell-based
- Test Parameters: 24 hours; read-out: ERα nano-luciferase degradation DC50
Quick reminder: number only, in nM, skip the unit.

Cc1ncsc1-c1ccc(CNC(=O)[C@@H]2C[C@@H](O)CN2C(=O)[C@@H](NC(=O)COCCN2CCN(CCOc3cc(F)c([C@@H]4c5[nH]c6ccccc6c5C[C@@H](C)N4CC(C)(C)F)c(F)c3)CC2)C(C)(C)C)cc1 [Compound 6]	46

## Task DC50 lookup needed for Cc1ncsc1-c1ccc(CNC(=O)[C@@H]2C[C@@H](O)CN2C(=O)[C@@H](NC(=O)COCCOCCOCCOc2cc(F)c([C@@H]3c4[nH]c5ccccc5c4C[C@@H](C)N3CC(C)(C)F)c(F)c2)C(C)(C)C)cc1 [Compound 3] , thanks.
## Result 3.1

## Task Also Cc1ncsc1-c1ccc(CNC(=O)[C@@H]2C[C@@H](O)CN2C(=O)[C@@H](NC(=O)COCCCOCCCOc2cc(F)c([C@@H]3c4[nH]c5ccccc5c4C[C@@H](C)N3CC(C)(C)F)c(F)c2)C(C)(C)C)cc1 [Compound 5] ?
## Result 15

* * *

- Tested System: recombinant human ERα ligand binding domain (LBD) (Homo sapiens)
- Construct: purchased Invitrogen PV4543
- Sequence (P03372 311-547 limits assumed): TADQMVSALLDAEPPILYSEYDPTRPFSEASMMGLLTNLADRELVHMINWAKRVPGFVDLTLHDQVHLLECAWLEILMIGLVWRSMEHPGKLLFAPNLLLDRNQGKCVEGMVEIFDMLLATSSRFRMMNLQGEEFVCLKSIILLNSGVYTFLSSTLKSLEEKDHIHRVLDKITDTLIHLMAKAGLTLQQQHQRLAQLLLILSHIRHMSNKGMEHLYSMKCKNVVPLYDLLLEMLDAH
- Experimental Protocol: ERα binding assay (LanthaScreen TR-FRET competition)
- Test Parameters: mean ± s.d.; read-out: ERα binding IC50
Quantity Measured: pIC50
Field pIC50 (float): negative decimal logarithm of the concentration in molar.

Reference set (2 entries):
Cc1ncsc1-c1ccc(CNC(=O)[C@@H]2C[C@@H](O)CN2C(=O)[C@@H](NC(=O)COCCOCCOCCOc2cc(F)c([C@@H]3c4[nH]c5ccccc5c4C[C@@H](C)N3CC(C)(C)F)c(F)c2)C(C)(C)C)cc1 [Compound 3]	9.52
Cc1ncsc1-c1ccc(CNC(=O)[C@@H]2C[C@H](O)CN2C(=O)[C@@H](NC(=O)COCCCOCCCOc2cc(F)c([C@@H]3c4[nH]c5ccccc5c4C[C@@H](C)N3CC(C)(C)F)c(F)c2)C(C)(C)C)cc1 [Compound 7]	9.00

Then there is this compound:
## Task Can you look up pIC50 on recombinant human ERα ligand binding domain (LBD) (Homo sapiens) for Cc1ncsc1-c1ccc(CNC(=O)[C@@H]2C[C@@H](O)CN2C(=O)[C@@H](NC(=O)COCCOc2cc(F)c([C@@H]3c4[nH]c5ccccc5c4C[C@@H](C)N3CC(C)(C)F)c(F)c2)C(C)(C)C)cc1 [Compound 1] ?
## Result 8.89
